# measurement target: ROR1 (antigen of the KD determination and of the Octet dissociation measurement) (UniProt Q01973 30-403, limits assumed)
# Sequence (Q01973 30-403 limits assumed): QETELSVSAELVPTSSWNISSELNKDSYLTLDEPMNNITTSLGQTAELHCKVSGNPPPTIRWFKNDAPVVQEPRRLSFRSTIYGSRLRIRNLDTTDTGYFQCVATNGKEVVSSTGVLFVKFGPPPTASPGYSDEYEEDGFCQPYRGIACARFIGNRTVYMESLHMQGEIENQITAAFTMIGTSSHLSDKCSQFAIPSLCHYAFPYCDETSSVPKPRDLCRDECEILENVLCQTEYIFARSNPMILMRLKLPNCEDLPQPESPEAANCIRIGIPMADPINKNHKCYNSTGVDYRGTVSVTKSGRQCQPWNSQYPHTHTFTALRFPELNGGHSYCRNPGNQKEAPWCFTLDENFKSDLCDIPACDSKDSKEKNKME
# measurement protocol: method not stated (conventional procedures)

binder: PR001371 (antibody, human IgG1, kappa, V domains shown, fully human IgG1, kappa) VH: QVQLVESGGGVVQPGRSLRLSCAASGFTFSSYGMLWVRQAPGKGLEWVAVAWYDGVSEDYADSVKGRFTISRDNSMNTLSLQMNSLRAEDTAVYYCAREQARSFDLWGRGTLVTVSS VL: DIQLTQSPSSLSASVGDRVTITCRASQTINNWLAWYQQKPGKAPKLLIYKASSLESGVPSRFSGSGSGTEFTLTISSLQPDDFATYYCQQYNSYSPMYTFGQGTKVEIKR
unit descriptor: nM
Kd: 1.76

binder: PR001416 (antibody, human IgG1, kappa, V domains shown, fully human IgG1, kappa) VH: QVQLVESGGGVVQPGRSLRLSCAASGFTFSTYGMHWVRQAPGKGLEWVAVIWYDGSDKDYADSVKGRFTISRDTSKNTLYLQMNSLRAEDTAVYYCAREQARSFDLWGRGTLVTVSS VL: DIVMTQSPSTLSASVGDRVTITCRASQTINNWLAWYQQKPGKAPKLLIYKASSLESGVPSRFSGSGSGTEFTLTISSLQPDDFATYYCQQYNSYSPMYTFGQGTKVEIKR
unit descriptor: nM
Kd: 1.27

binder: PR001364 (antibody, human IgG1, kappa, V domains shown, fully human IgG1, kappa; also called anti-ROR1 1015M3-D8 hIgG1; PR001364(WT)) VH: EVQLLESGGGVVQPGRSLRLSCAASGFTFSSFGMHWVRQAPGKGLEWVAVIWYDGSDKDYADSVKGRFTISRDTSKNTLYLQMNSLRAEDTAVYYCAREQARSFDLWGRGTLVTVSS VL: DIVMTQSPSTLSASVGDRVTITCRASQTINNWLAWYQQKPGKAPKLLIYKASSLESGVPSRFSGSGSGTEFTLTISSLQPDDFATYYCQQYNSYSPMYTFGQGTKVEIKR
unit descriptor: nM
Kd: 1.2

binder: PR001361 (antibody, V domains shown, fully human IgG1, kappa) VH: QVQLVQSGGGVVQPGRSLRLSCTASGFTFSRYGMLWVRQAPGKGLEWVAVAWYDGVSEDYADSVKGRFTISRDNSMNTLSLQMNSLRAEDTAVYYCAREQARSFDLWGRGTLVTVSS VL: DIQLTQSPSTLSASVGDRVTITCRASQSINSWLAWYQQKPGKAPKLLIYKASSLESGVPSRFSGSGSGTEFTLTISSLQPDDFATYYCQQYKSYSPMYTFGQGTKVDIKR
unit descriptor: nM
Kd: 1.83

binder: PR001363 (antibody, human IgG1, kappa, V domains shown, fully human IgG1, kappa) VH: QVQLVESGGGVVQPGRSLRLSCAASGFSFSSYAMHWVRQAPGRGLEWVAVIWYDGGDEDSIDSVKGRFTISRDDSKNTLYLQMNSLRAEDTAVYYCAREQARSFDLWGRGTLVTVSS VL: DVVMTQSPSTLSASVGDRVTITCRASQTINNWLAWYQQKPGKAPKLLIYKASSLESGVPSRFSGSGSGTEFTLTISSLQPDDFATYYCQQYNSYSPMYTFGQGTKVEIKR
unit descriptor: nM
Kd: 2.9
